- tested_on: T1, SmB C-terminal region, residues 167-231, wild type (human, UniProt P14678-2 167-231)
- T1 construct: source: E. coli BL21, purified (Ni-NTA, TEV cleavage, gel filtration); not shown: His6, N-terminal, cleaved; GST, N-terminal, cleaved
- experiment_summary: ITC; Sm tail constructs with wild type OCRE; SmN constructs (1 mM) titrated into OCRE (100 μM); ITC200, 24°C, 20 mM sodium phosphate pH 6.5, 50 mM NaCl; duplicates
- condition_summary: both partners purified
test_readout: pKd
Numbers only, as −log10 of the molar value.

// query Please look up its pKd: RBM5 OCRE domain (residues 451-511), wild type (domain or fragment, human, tripeptide left by the TEV cleavage; 15N- or 13C,15N-labelled in the NMR experiments; also called RBM5_OCRE WT; source: E. coli BL21, purified (Ni-NTA, TEV cleavage, gel filtration); not shown: His6, N-terminal, cleaved) GAMGTKYAVPDTSTYQYDESSGYYYDPTTGLYYDPNSQYYYNSLTQQYLYWDGEKETYVPAAES
// result 4.68
